assay: chemical genetic growth profiling, strain panel (AID 1159580);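 further: tested at 20 µM; growth read once vehicle control cultures reached saturation at 30 °C; lower values mean less growth of the strain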; conditions: S. cerevisiae deletion strains, growth OD, locus YPR119W, strain clb2
Hit rate of the full screen: of about 5,500 compounds, about 2,000 (36%) were called active. Another 18% or so got no clear call; they are omitted. No stated cut-off is given here; in the data, active means normalized growth mostly below about 0.91 (no sharp cut-off); inconclusive means no clear call, values can overlap the other calls; inactive means mostly above about 0.92. The list shows a part of the results.
Select the correct class. Options are active, inactive and nothing else.

-- ask Called result for "CN1CCC[C@H]1c1cccnc1"
-- reply inactive

-- ask Called result for CC1(C)CC23C(=O)CCC(O)C2(C)CCC13 (stereo unspecified)
-- reply inactive

-- ask Called result for "Cn1cnc2c1c(=O)[nH]c(=O)n2C"
-- reply inactive

-- ask Called result for "COC(=O)c1cc(OC)c(=O)c2c(OC)c(OC)ccc2c1"
-- reply inactive

-- ask Called result for "CNC(C)(C)Cc1ccccc1"
-- reply inactive

-- ask Called result for "CC1=C(C(=O)O)N2C(=O)[C@@H](NC(=O)[C@@H](N)c3ccc(O)cc3)[C@H]2SC1"
-- reply inactive

-- ask Called result for COC(=O)C[C@H]1C(C)(C)[C@H](O)[C@@H]2CC3=C4CC(O)O[C@@H](c5ccoc5)[C@]4(C)CCC3[C@@]1(C)C2=O (stereo partly specified)
-- reply inactive

-- ask Called result for "Cc1c(NC(C)C)c(=O)n(-c2ccccc2)n1C"
-- reply inactive

Continuing:
-- ask Called result for "O=c1c(O)c(-c2ccccc2)oc2cc(O)ccc12"
-- reply active

-- ask Called result for "O=c1c(O)cccc2cc(O)c(O)c(O)c12"
-- reply inactive

-- ask Called result for "COc1cc2cccc(OC)c(=O)c2c(OC)c1OC"
-- reply inactive

-- ask Called result for "CON"
-- reply inactive

-- ask Called result for "N[C@@H](C(=O)N[C@@H]1C(=O)N2C(C(=O)O)=C(Cl)CS[C@H]12)c1ccccc1"
-- reply inactive

-- ask Called result for O=C1C(=O)c2ccccc2C(O)=C1C1CCC(c2ccc(Cl)cc2)CC1 (stereo unspecified)
-- reply inactive

-- ask Called result for Cc1ccc(O)c(C(CCN(C(C)C)C(C)C)c2ccccc2)c1 (stereo unspecified)
-- reply inactive

-- ask Called result for "O=c1c(O)c(-c2ccccc2)oc2ccc3occc3c12"
-- reply active

-- ask Called result for "O=C1c2ccccc2C(=O)c2ccccc21"
-- reply inactive

-- ask Called result for "CN1CCN(C2=Nc3cc(Cl)ccc3Nc3ccccc32)CC1"
-- reply inactive

-- ask Called result for CC(C)C1CCC(C(=O)N[C@@H](Cc2ccccc2)C(=O)O)CC1 (stereo partly specified)
-- reply inactive
